ASSAY SUMMARY: yeast display, Sf9 membrane polyspecificity reagent, FACS + sequencing; frameworks hold sequencing errors
MEASURED ENDPOINT: polyreactivity (PSR sort gate)

1. QVQLVESGGGLVQAGGSLRLSCAASGGTFGYNAMGWYRQAPGKERELVADITRGGITYYADSVKGRFTISRDNAKNTVYLQMNSLKPEDTAVYYCNAEYYVFSYSYGGVLRGDYWGQGTQVTVSS :: high polyreactivity
2. QVQLVESGGRLVQAGGSLRLTCAASGYTYSYYAMGWYRQAPGKERELVAAINYSGGRTYYADSVKGRFTISRDNAKNTVYLQMNSLKPEDTAVYYCAAYTRNGDYDYWGQGTQVTVSS :: high polyreactivity

* * *

ASSAY SUMMARY: yeast display, Sf9 membrane polyspecificity reagent, FACS + sequencing; frameworks hold sequencing errors
MEASURED ENDPOINT: polyreactivity (PSR sort gate)

# count of solved cases: 4
1. QFQLEESGGGLVQAGGSLRLSCAASGSTFWYNAMGWYRQAPGKERELVAAISRSGATTYYADSVKGRFTISRDNAKNTVYLQMNSLKPEDTAVYYCNAVISPSSYVRNSDYWGQGTQVTVSS :: low polyreactivity
2. QVQLVESGGGLVQAGGSLRLSCAASGSIFNNYAMGWYRQAPGKEREFVAAISRSGGSTYYADSVKGRFTISRDNAKNTVYLQMNSLKPEDTAVYYCATDHGRYHGRYDYWGQGTQVTVSS :: high polyreactivity
3. QVQLVESGGGLVQAGGSLRLSCAASGRNFWVYAMGWYRQAPGKERELVAAISLSGGRTYYADSVKGRFTITRDKAKNNVNLQMNSLKPEDTAVYYCYAVYPKRGGGRIVDYWGQGTQVTVSS :: high polyreactivity
4. QVQLVESGGRLVQAGGSLRLSCAASGGIFYYNAMGRYRQAPGKERELVAAIRYRGGSTYYADSVKGRFTISRDNAKNTVYLQMNSLKPEDTAVYYCAADYYRSRYYYWGQGTQVTVSS :: low polyreactivity

Shifting focus to the sequence that follows.
Looking up QVQLVESGRGLVQAGGSLRLSCAASGRIFNLNAMGWYRQAPGKERELVAAITRGGRTIYADSVKGRFTISRDNAQNTVYLQMNSLKPEDTAVYYCAAAYYGSHGRYDYWGQGTQVTVSS , I see its polyreactivity (PSR sort gate) listed as high polyreactivity

* * *

ASSAY SUMMARY: yeast display, Sf9 membrane polyspecificity reagent, FACS + sequencing; frameworks hold sequencing errors
MEASURED ENDPOINT: polyreactivity (PSR sort gate)

Consider the reported polyreactivity (PSR sort gate) for these sequences:
1) QVQLVDSGGGLVQAGGSLRLSCAASGITIVYYAMGWNRQAPGKERELVAAITRGANTYYADSVKGRFTISRDNAKNTVYLQMNSLKPEDTAVYYCAADGWVGAWWYVLDVRYDYWGQGTQVTVSS :: low polyreactivity
2) QVQLVESGGGLVQAGGSLRLSCAASGRTFAPYAMVWYRQAPGKERELVAAITYSGGSTYYADSVKGRFTISRDNAKNTVYLQMNSLIPADTAVYYCAADSDYDPYDYWGQGTQVTVSS :: low polyreactivity
3) QVQLVESGGGLVQAGGSLRLSCAASGRTFWGYGMGWYRQAPGKERELVATISSGGSTYYADSVKGRFTISRDNAKNTVYLQMNSLKPEDTAVYYCAARPPRTYWRYQSDYWGQGTQVTVSS :: high polyreactivity
4) QVQLVESGGGIVQAGGSLRLSCAASGRIFVLNAMGWYRQAPGKERELVAAISKSAGSTYYADSVKGRFTISRDNAKNTVYLQMNSLKPEDTAVYYCNVGRRGHYLDAYDYWGQGTQVTVSS :: high polyreactivity
5) QVQLVESGGGLVQAGGSLRLSCAASGITFGYYAMGWYRQAPGKERELVASITSGGSTNYADSVKGRFTISRDNAKNTVYLQMNSLKPEDTAVYYCAKRYYRQYDYWGQGTQVTVSS :: low polyreactivity

For every listed record, write down its polyreactivity (PSR sort gate).
1. QVQLVESGGGLVQAGGSLRLSCAASGSIFVSYTMGWYRQAPGKERELVAAITRSGGSTYYADSVKGRFTISRDNAKNTVYLQMNSLKPEDTAVYYCAAGTVDYRGYFEMYFWGQGTQVTVSS
2. QVQLVESGGGLVQAGGSLRLSCAASGFIFTPYTMGWYRQAPGKERELVAAITDGSSTYYADSVKGRFTISRDNAKNTVYLQMNSLKPEDTAVYYCAAVPRYQYGYWGQGTQVTVSS

OUTPUT:
["low polyreactivity", "low polyreactivity"]

Each of the following entries comes with a recorded value; kindly state polyreactivity (PSR sort gate) for each.
1. QVQLVESGGGLVQAGGSLRLSCAASGFIFYYYAMGWYRQATGKERELDASISSDGSTYYADSVKGRFTISRDNAKNTVYLQMNSLKPEDTAVYYCNADRYYPDDLSDGVGTYDYWGQGTQVTVSS
2. QVQLVESGGGLVQAGGSLRLSCAASGGTFRVYVMGWYRQAPGKERELVADISRGGGSTYYADSVKGRFTISRDNAKNTVYLQMNSLKPEDTAVYYCAARVCRYPWRASEYDYWGQGTQVTVSS
3. QVQLVESGGGLVQAGGSLRISCAASGSIFVHYAMGWYIPAPGKERELVAAITTSGGSTYYADSVKGRFTISRDNAKNTVYLQMNSLKPEDTAVYYCTARAVRYPFTGNYWGQGTQVTVSS
4. QVQLVESGGGLVQAGGSLRLSCAGSGIIFAWYAMGWYRQAPGKERELVAAITSGGGSTYYADSVKGRFTISRDNAKNTVYLQMNSLKPEDTAVYYCAADYQTIGWGYDYWGQGTQVTVSS

OUTPUT:
["low polyreactivity", "high polyreactivity", "high polyreactivity", "low polyreactivity"]

* * *

ASSAY SUMMARY: yeast display, Sf9 membrane polyspecificity reagent, FACS + sequencing; frameworks hold sequencing errors
MEASURED ENDPOINT: polyreactivity (PSR sort gate)

Sample answers from the record:
1. QVQLVESGGGLVQAGGSLRLSCAASGSIFDLNAMGWYRQAPGKERELGAAISSGGGTYYADSVKGRFTISRDNAKNTVYLQMNSLKPEDTAVYYCNRVTSWTYNYWGQGTQVTVSS :: high polyreactivity
2. QVQLVESGGGLVQAGGSLRLSCAASGFIFRRYAMGWYRQAPGKERELVAAITRSGGSTYYADSVKGRFTISRDTSKNTVYLQMNSLNPEDTAVYYCATKSSGPVLGYGYDYWGQGTQVTVSS :: high polyreactivity
3. QVQLQESGGGLVQAGGSLRLSCAASGNISVTGFMGWYRQAPGKERELVASIGIGGTTYYADSVKGRFSISRDNAKNTVYLQMNSLKPEDTAVYYCAARYLYYAYSYWGQATQVTVSS :: low polyreactivity
4. QVQLVESGGGLVQAGGSLRLSCAASGFTFQYNAMGWYRQAPGKERELVAAITWTGTSTYAYSVKGRFTISRDNAKNTVYLQLNSVKPDDTGVYYCAARYYAPRWFRYDYWGQGTQVTVSS :: low polyreactivity
5. QVQLVESGGGLVQAGGSLRLSCAASGFIFINYAMGWNRPAPGKERELVAAISSRGGSTYYADSVKGRFTISRDNAKNTVYLQMNSLKPEDTAVYYCNADQSFRIVTFDYWGQGTQVTVSS :: high polyreactivity
6. QVQLVESGGGLVQAGGSLRLSCAASGRILSTYAMGWYRQAPGKERELVAVISWTGGRTYYADSVKGRFTISRYNAKNTVYLQMNSLKPEDTAVYYCNARPYYGGTRGRQYEYGYWGQGSQVTVSS :: high polyreactivity

For each entry beneath this line, provide reported polyreactivity (PSR sort gate).
1. QVQLVESGGGLVQAGGSLRLSCAASGLIFGVNAMGWYRQAPGKERELVAAISWSGSSTNYADSVKGRFTISRDNAKNTVYLQMNSLKPEDTAVYYCATDQGYRYLKIYVYGDAFDYWGQGTQVTVSS
2. QVQLVESGGGLVQAGGSLRLSCAASGRILAYYAMGWYRQAPGKERELVDAINRSGVRTYYADSVKGRFTISRDYAKNTVYLQMNSLKPEDTAVYYCAAPGQHSWGQGTQVTVSS
3. QVQRVESGGGLVQAGASLRLSCAASGRTFRSYTMGWYRQAPGKERELVATISGSGSTNYADSVKGRFTISRDNAKITVYLQMNSLKPEDTAVYYCAADVSLSVFKLDYWGQGTQVTVSS

OUTPUT:
1. low polyreactivity
2. high polyreactivity
3. low polyreactivity

For each of the sequences below, state polyreactivity (PSR sort gate).
1. QDQLVESGGGLVQAGGSLRLICSASGIILGSNAMGWYRQAPGKERELVAAITSSGSTYYADSVKGRFTISRDNAKNTVYIQMNSLKPEDTAVYYCATGWLRRAVRFNYWGQGTQVTLSS
2. QVQLVESGGGLVQAGGSLRLSCAASGSTFAYNDMGWYRQAPGKETELVADIRSGGNTNYADSVKGRFTISRDNAKNTVYLQMNSLKPEDTAVYYCATDGYRFDVYHPDYRYDYWGQGTQVTVSS
3. QVQLVESGGCLVQAGGSLRLSCAASGFIISSYVMGWYSQEPGKERELVAAITSGTSTYYADSVKGRFTFSRDNAKNTVYLQMNSLKPEDTAVYYCTADSYHTYYYWYDYWGQGTQVTVSS
4. QVQLVESGGGLVQAGGSLRLSCAASGSIFYSYAMGWYRQAPGKERELVARINYRGGSTYYADSVKGRFTISRDNAMNTVYLQMNSLKPEDTAVYYCAKRSYWSSNPRDYWGQGTQVTVSS

OUTPUT:
1. high polyreactivity
2. low polyreactivity
3. low polyreactivity
4. high polyreactivity

Fill in polyreactivity (PSR sort gate) for each of the 4 sequences listed.
1. QVQLVESGGGLVQAGGSLRLSCAASGSTFVPYAMGWSSQAPGKERELVADISWSGGSTYYADSVKVRFTISRDNAKNTVYLQMNSLKPEDTAVYYCAARSIYKSKYDYWGQGTQVTVSS
2. QVQLVESGGGLVQAGGSLRLSCAASGIIFPNYAMGWYRPAPGKERELVAAIDDDASTTYADSVKGRFTISRDNAKNTVYLQMNSLKPEDTAVYYFAADGFDWYDWRWTYDYWGQGTQVTVSS
3. QVQLVESGGGLVQAGGSLRLSCAASGLTSVYNAMGWYRQAPGKERELVAAISWRGGRTYYADSVKGRFTISRDNAKNTVYLQMNSLKPEDTAVYYCARGYYTRPYYNPVFGYNYWGQGTQVTVSS
4. QVQLVESGGGLVQAGGSLRLSCAASGSIFVYYGMGWYRQAPGKERELVAAISSGGSTHYADSVKGRFTISRDNAKNTVYFQMNSLKPEDTAVYYCAADRFFWLRSYPRYYYWGQGTQVTVSS

OUTPUT:
1. high polyreactivity
2. high polyreactivity
3. high polyreactivity
4. low polyreactivity

Please look at the items below and tell me polyreactivity (PSR sort gate) for each one, in order.
1. QVQLVESGGGLVQAGGSLRLSCAASGRIFGPYAMGWYRQAPGKERELVAAISGRGSSTYYADSVKGRFTLSRDNAKNTVYLQMNSLKPEDTAVYYCAKYPTYSYDYWGQGTQVTVSS
2. QVQLVESGGGLVQAGGSLRLSCAASGRIFDYNTMGWYRQAPGKEREFVAAITSSGGRTYYADSVKGRFTISRDNAKNTVYLQMNSLKPEDTAVYYCAARLNIYYRRMGYWGQGTQVTVSS
3. QVQLVESGGGLVQAGGSLRLSCAASGSTFHYNAMGWYRQAPGKERELVAAIDNGGRTNYADSVKGRFTISRDNAKNTVYLQMNSLKPEDPAVYYCATRGYFWSFTTSYYHYYYWGQGTQVTVSS
4. QVQLVESGGGLVQAGGSLRLRCASSGITFRGYAMGWYRQAPGKERELVASITNTDSTYYADSVKGRFTISRDNAKNTVYLQMNSLKPEDTAVYYCAARRGRKYGYWGQGTQVTVSS

OUTPUT:
1. high polyreactivity
2. high polyreactivity
3. high polyreactivity
4. high polyreactivity

Where these numbers come from: the nanobody polyreactivity screen of Harvey et al. (2022)
